biological target: Arg^172Lys GPR84-Cys^352Ile Gαi2 fusion protein (Homo sapiens, UniProt Q9NQS5, R172K); construct: Cys352Ile Gαi2 (fusion partner, same polypeptide); expressed in transfected cells; host or cells: membranes of Flp-In T-REx 293 cells, doxycycline-induced; test: [35S]GTPγS binding, Arg172Lys mutant fusion protein; assay type: biochemical
Sequence (Q9NQS5 2-396 R172K): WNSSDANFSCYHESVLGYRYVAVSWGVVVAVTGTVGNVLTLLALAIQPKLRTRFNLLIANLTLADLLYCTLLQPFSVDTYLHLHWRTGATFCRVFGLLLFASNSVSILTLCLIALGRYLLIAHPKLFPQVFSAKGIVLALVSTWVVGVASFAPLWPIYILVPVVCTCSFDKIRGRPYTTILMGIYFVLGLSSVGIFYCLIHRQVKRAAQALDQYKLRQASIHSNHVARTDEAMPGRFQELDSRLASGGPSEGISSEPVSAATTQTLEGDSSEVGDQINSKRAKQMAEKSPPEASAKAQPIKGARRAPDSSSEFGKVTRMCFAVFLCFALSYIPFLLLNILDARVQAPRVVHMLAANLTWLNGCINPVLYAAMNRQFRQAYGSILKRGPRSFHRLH
observation_type: agonist response at Arg172Lys mutant

>>> measured_result("CCCCCCCCCCCC1=C(O)C(=O)C=C(O)C1=O")
"eliminated response"
>>> measured_result("CCCCCCCCCC(=O)O")
"eliminated response"
>>> measured_result("CCCCCCSc1nc(O)cc(O)n1")
"eliminated response"

----------
target: Arg^172Ala GPR84-Cys^352Ile Gαi2 fusion protein (Homo sapiens, UniProt Q9NQS5, R172A); construct: Cys352Ile Gαi2 (fusion partner, same polypeptide); expressed in transfected cells; host or cells: membranes of Flp-In T-REx 293 cells, doxycycline-induced; experiment: [35S]GTPγS binding, Arg172Ala mutant fusion protein; format: biochemical
Sequence (Q9NQS5 2-396 R172A): as the sequence (Q9NQS5 2-396 R172K) above, with K171A counted along it
observation_type: agonist response at Arg172Ala mutant

>>> measured_result("CCCCCCSc1nc(O)cc(O)n1")
"no response"
>>> measured_result("CCCCCCCCCCCC1=C(O)C(=O)C=C(O)C1=O")
"no response"
>>> measured_result("CCCCCCCCCC(=O)O")
"no response"

----------
system: GPR84-Gαi2 fusion protein; experiment: [35S]GTPγS binding, membranes expressing GPR84-Gαi2 fusion protein; type: biochemical, human; details: DIM analogs
observation_type: direct agonism of GPR84, [35S]GTPγS binding

>>> measured_result("O=[N+]([O-])c1ccc2[nH]cc(Cc3c[nH]c4ccc([N+](=O)[O-])cc34)c2c1")
"direct agonism"
>>> measured_result("COc1ccc2[nH]cc(C(c3cc(F)cc(F)c3)c3c[nH]c4ccc(OC)cc34)c2c1")
"inactive"
>>> measured_result("COc1ccc2[nH]cc(Cc3c[nH]c4ccc(OC)cc34)c2c1")
"direct agonism"
>>> measured_result("COc1ccc2[nH]cc(C(c3ccc(C)cc3)c3c[nH]c4ccc(OC)cc34)c2c1")
"inactive"

----------
target: GPR84-Cys^352Ile Gαi2 fusion protein (Homo sapiens); experiment: [35S]GTPγS binding, membranes expressing pertussis toxin-resistant GPR84-Cys352Ile Gαi2 fusion; operational model of allosteric modulation; conditions: pKA (estimated for the agonist), agonist 3a, modulator compound-1
Sequence (Q9NQS5 whole entry, the tested form may be a part): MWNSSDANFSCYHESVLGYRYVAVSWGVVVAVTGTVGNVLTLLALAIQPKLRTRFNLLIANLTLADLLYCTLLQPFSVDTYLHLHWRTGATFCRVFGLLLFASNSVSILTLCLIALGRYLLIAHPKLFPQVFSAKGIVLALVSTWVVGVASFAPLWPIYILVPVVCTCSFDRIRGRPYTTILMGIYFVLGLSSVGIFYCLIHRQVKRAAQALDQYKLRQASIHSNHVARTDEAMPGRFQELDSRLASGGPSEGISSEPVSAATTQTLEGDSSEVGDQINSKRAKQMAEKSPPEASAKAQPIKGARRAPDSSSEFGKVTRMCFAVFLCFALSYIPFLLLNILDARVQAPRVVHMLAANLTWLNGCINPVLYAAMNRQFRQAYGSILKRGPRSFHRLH
Sequence (P04899 2-355 C352I, further chain): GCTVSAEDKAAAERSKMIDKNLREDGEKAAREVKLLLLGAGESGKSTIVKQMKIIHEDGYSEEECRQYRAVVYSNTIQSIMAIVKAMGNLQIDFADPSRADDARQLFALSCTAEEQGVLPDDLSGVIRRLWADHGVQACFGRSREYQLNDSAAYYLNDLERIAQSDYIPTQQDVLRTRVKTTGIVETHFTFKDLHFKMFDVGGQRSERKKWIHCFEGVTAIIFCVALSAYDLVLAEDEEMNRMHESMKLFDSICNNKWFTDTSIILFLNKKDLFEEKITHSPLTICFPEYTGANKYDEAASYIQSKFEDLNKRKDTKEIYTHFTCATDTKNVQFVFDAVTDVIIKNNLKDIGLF
observation_type: Kd (µM)
Reply with just the number (in µM).

IN: Tell me Kd reported for "COc1ccc2[nH]cc(Cc3c[nH]c4ccc(OC)cc34)c2c1"
OUT: 14.8

Measured values drawn from paper PMC5738391 for this set.
